# target: human Dopamine Receptor D4.4 (DRD4.4), DRD4 (gene 1815) (UniProt P21917)
# Sequence (P21917 whole entry, looked up): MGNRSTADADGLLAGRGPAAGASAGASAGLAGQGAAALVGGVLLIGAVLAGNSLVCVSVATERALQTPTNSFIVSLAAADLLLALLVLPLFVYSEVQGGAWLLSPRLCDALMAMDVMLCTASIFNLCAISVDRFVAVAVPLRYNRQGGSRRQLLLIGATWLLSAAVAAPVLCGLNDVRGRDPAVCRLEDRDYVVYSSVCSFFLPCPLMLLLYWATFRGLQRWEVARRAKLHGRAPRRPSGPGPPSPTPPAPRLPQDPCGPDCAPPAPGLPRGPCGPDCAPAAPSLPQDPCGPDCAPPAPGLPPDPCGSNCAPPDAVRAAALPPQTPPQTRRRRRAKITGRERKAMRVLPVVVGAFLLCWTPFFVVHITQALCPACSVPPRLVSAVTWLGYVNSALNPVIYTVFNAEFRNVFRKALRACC
# assay-explanation: NVS_GPCR_hDRD4.4: NovaScreen (NVS) G Protein-Coupled Receptor Assay for human Dopamine Receptor D4.4 (DRD4.4) (AID 2283264)
Results filed as inconclusive are left out. The source made the active and inactive calls. How the source made its calls: active means hit-call score of the fitted dose curve at least 0.9, where 1 is the maximum; inconclusive means response in the unintended direction; inactive means score below 0.9.
Select the correct class. Options are true for active, false for inactive and nothing else.

INSERT INTO measurements (mol, category_label) VALUES
  ('CCCCCCCCCCCCCCCCOS(=O)(=O)O', 'true'),
  ('C=CCc1cc(S(=O)(=O)c2ccc(O)c(CC=C)c2)ccc1O', 'true'),
  ('O=c1[nH]cnc2c1ncn2[C@H]1CC[C@@H](CO)O1', 'false');

Could you check what this test reported for O=C(NO)C1(NS(=O)(=O)c2ccc(Oc3ccc(F)cc3)cc2)CCOCC1 ?
true

###

# assay-explanation: ATG_CMV_CIS: Attagene CIS-FACTORIAL HepG2 Assay for human CMV (Internal Marker) (AID 2282928);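 further: endpoint acts as a background internal control marker rather than a target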
# settings: HepG2 CMV promoter reporter, transcription factor profiling; actives raise or lower the signal
Activity calls are given as the source filed them. The calls were made as follows: active = hit-call score of the fitted dose curve at least 0.9, where 1 is the maximum; inactive = score below 0.9.
Use one of these outcomes when replying: T for active, F for inactive

Solved cases below.
INSERT INTO measurements (mol, category_label) VALUES
  ('O=C(O)CO', 'F'),
  ('CC(C)c1nnc2ccc(-c3ocnc3-c3cc(F)ccc3F)cn12', 'F'),
  ('CCOC(N)=O', 'F'),
  ('OC(CCl)CCl', 'F'),
  ('OCCOCCOCCO', 'F'),
  ('OC[C@H]1O[C@@H]2O[C@H]3[C@H](O)[C@@H](O)[C@@H](O[C@H]4[C@H](O)[C@@H](O)[C@@H](O[C@H]5[C@H](O)[C@@H](O)[C@@H](O[C@H]6[C@H](O)[C@@H](O)[C@@H](O[C@H]7[C@H](O)[C@@H](O)[C@@H](O[C@H]1[C@H](O)[C@H]2O)O[C@@H]7CO)O[C@@H]6CO)O[C@@H]5CO)O[C@@H]4CO)O[C@@H]3CO', 'F'),
  ('Cc1cccc(O)c1C', 'F'),
  ('CC1(C)C(=O)N(Cl)C(=O)N1Cl', 'F'),
  ('O=C1CN(N=Cc2ccc([N+](=O)[O-])o2)C(=O)N1', 'T'),
  ('CCn1nc(C)c2c1C(=O)NCC(c1ccc(O)cc1)=N2', 'F');

Attention now shifts to the item below.
Assay outcome for S=P(N1CC1)(N1CC1)N1CC1 : what was it?
F

###

# Read-out: Keratin 19 (KRT19), KRT19 (gene 3880)
# assay-explanation: LTEA_HepaRG_KRT19: Life Technologies and Expression Analysis (LTEA) Assay for Keratin 19 (KRT19) using HepaRG (AID 2283512)
# settings: mRNA level, 48 h; actives raise or lower the signal
Calls of active or inactive are those of the source. How the source made its calls: active means hit-call score of the fitted dose curve at least 0.9, where 1 is the maximum; inactive means score below 0.9.
// one of active, inactive, no free text

INSERT INTO results (compound, category_label) VALUES
  ('c1ccc2cc3ccccc3cc2c1', 'inactive'),
  ('CCc1cccc(CC)c1N', 'inactive'),
  ('CC(=O)c1ccccc1', 'inactive'),
  ('O=c1[nH]cnc2c1ncn2[C@H]1CC[C@@H](CO)O1', 'inactive');

Entry CC(C)C(=O)Nc1ccc([N+](=O)[O-])c(C(F)(F)F)c1 : call = ?
active

# outcome recorded in this test, key = CCN(CC)C(=S)SSC(=S)N(CC)CC
inactive

Record request — test call for CCCOc1ccc(S(=O)(=O)N2CCN(CC)CC2)cc1-c1nc2c(CC)n(Cc3ccccn3)nc2c(=O)[nH]1
inactive

Hi, sorry to bother you, what did the test record for C=CN1CCCC1=O ?
inactive

I would be grateful if you could indicate the recorded call for CCCc1ccccc1 .
inactive

Fill in: this test's call for CCCCCCCCCCCCCCO is ___
inactive

Dear colleague, could you share the recorded outcome for O=C(NO)C1(NS(=O)(=O)c2ccc(Oc3ccc(F)cc3)cc2)CCOCC1 when you have a moment?
active

Please state the recorded outcome for this compound: COc1cc(C(C)C)c2c(c1)S(=O)(=O)N(COc1cc(=O)n3cccc(OCCN4CCCCC4)c3n1)C2=O
active

Per the records of this test, what outcome belongs to Cc1nccn1-c1ccc(Sc2cccc(C3(C(N)=O)CCOCC3)c2)cc1 ?
active

In this assay, the call recorded for O=C1CN(N=Cc2ccc([N+](=O)[O-])o2)C(=O)N1 was what?
active

Please let me know the test result on file for CCn1nc(C)c2c1C(=O)NCC(c1ccc(O)cc1)=N2 .
active

Fill in: this test's call for Nc1ccn([C@@H]2O[C@H](CO)[C@@H](O)[C@@H]2O)c(=O)n1 is ___
inactive

For this compound, state the assay outcome: OC[C@H]1O[C@@](CO)(O[C@H]2O[C@H](CO)[C@@H](O)[C@H](O)[C@H]2O)[C@@H](O)[C@@H]1O
inactive

Outcome logged for Cc1ncc([C@@H](CCCCCCc2ccc3c(n2)NCCC3)CC(=O)O)cn1 in this assay:
inactive

Kindly provide the recorded test outcome for the following compound: Cc1ccc(S(=O)(=O)NC(=O)NN2CCCCCC2)cc1
inactive

Could you check what this test reported for OCc1ccccc1 ?
inactive

Please indicate how the test categorized c1ccc2c(c1)-c1cccc3c1c-2cc1ccccc13 .
active

GET /call?item= CCCC(CCC)C(=O)O returns the recorded outcome of this test.
inactive

Can you look up the reported call for CC(C)CCCCCCOC(=O)C1CCCCC1C(=O)OCCCCCCC(C)C (configuration not stated) for me?
inactive

###

# Read-out: C-C motif chemokine 2 (Homo sapiens)
# assay-explanation: BSK_KF3CT_MCP1: BioMAP Diversity Plus: KF3CT Assay for Monocyte Chemoattractant Protein 1 (MCP1/CCL2) Biomarker Activity (AID 2283073)
# settings: primary human keratinocytes with fibroblasts; actives raise or lower the signal
Active and inactive are the calls of the source. Rule for the calls: active = hit-call score of the fitted dose curve at least 0.9, where 1 is the maximum; inactive = score below 0.9.
property-measured: outcome

// worked examples, outcome included
INSERT INTO assay_data (mol, property_measured, reported_result) VALUES
  ('c1ccc2ncccc2c1', 'outcome', 'inactive'),
  ('NC(=O)N1c2ccccc2C=Cc2ccccc21', 'outcome', 'inactive'),
  ('NNC(=O)c1ccncc1', 'outcome', 'inactive'),
  ('c1ccc2c(c1)-c1cccc3c1c-2cc1ccccc13', 'outcome', 'inactive'),
  ('c1ccc(C(O[C@@H]2CCCN(CCc3ccc4c(c3)OCO4)C2)c2ccccc2)cc1', 'outcome', 'inactive');

outcome recorded for this compound, COc1cc2c(c(OC)c1OC)-c1ccc(OC)c(=O)cc1[C@@H](NC(C)=O)CC2 , is inactive

###

# target: human Adrenergic, Alpha 2c Receptor (Adra2C), ADRA2C (gene 152) (UniProt P18825)
# Sequence (P18825 whole entry, looked up): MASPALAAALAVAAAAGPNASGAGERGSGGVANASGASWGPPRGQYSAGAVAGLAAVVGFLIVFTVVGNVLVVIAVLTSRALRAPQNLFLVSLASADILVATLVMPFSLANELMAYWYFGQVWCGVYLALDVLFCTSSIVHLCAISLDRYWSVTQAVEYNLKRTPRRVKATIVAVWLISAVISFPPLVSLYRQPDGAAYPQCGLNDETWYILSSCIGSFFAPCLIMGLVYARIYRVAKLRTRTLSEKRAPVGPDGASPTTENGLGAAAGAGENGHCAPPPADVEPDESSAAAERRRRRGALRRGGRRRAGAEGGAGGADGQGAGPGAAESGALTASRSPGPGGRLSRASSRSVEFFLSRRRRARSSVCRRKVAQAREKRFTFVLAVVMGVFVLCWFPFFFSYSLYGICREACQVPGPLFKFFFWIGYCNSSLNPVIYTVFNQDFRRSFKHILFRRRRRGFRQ
# assay-explanation: NVS_GPCR_hAdra2C: NovaScreen (NVS) G Protein-Coupled Receptor Assay for human Adrenergic, Alpha 2c Receptor (Adra2C) (AID 2283259)
Inconclusive results are not listed. The source made the active and inactive calls. Rule for the calls: active = hit-call score of the fitted dose curve at least 0.9, where 1 is the maximum; inconclusive = response in the unintended direction; inactive = score below 0.9.
Pick one: 1 = active, 0 = inactive

Illustrative cases are given below, each with its answer.
INSERT INTO assay_data (mol, category_label) VALUES
  ('O=C(O)c1ccc2c(c1)nc(C(=O)NC1CCN(C3CC3)CC1)n2Cc1cc(-c2ccc(Cl)s2)on1', 0),
  ('CCCCCCCCCCCCCCCCOS(=O)(=O)O', 1),
  ('COc1cc(C(C)C)c2c(c1)S(=O)(=O)N(COc1cc(=O)n3cccc(OCCN4CCCCC4)c3n1)C2=O', 1),
  ('CCn1nc(C)c2c1C(=O)NCC(c1ccc(O)cc1)=N2', 0),
  ('c1ccc(C(O[C@@H]2CCCN(CCc3ccc4c(c3)OCO4)C2)c2ccccc2)cc1', 1);

Name the outcome recorded for C=CCc1cc(S(=O)(=O)c2ccc(O)c(CC=C)c2)ccc1O in the assay.
1

Tell me the assay call for CCCCCCCCCC please.
0

###

# target: X-box-binding protein 1 (Homo sapiens)
# assay-explanation: ATG_Xbp1_CIS: Attagene CIS-FACTORIAL HepG2 Assay for human X-box Binding Protein 1 (XBP1) (AID 2282972)
# settings: HepG2 XBP1 cis-element reporter, Attagene multiplex; actives raise or lower the signal
Active and inactive are the calls of the source. How the source made its calls: active means hit-call score of the fitted dose curve at least 0.9, where 1 is the maximum; inactive means score below 0.9.
Please state which outcome applies, choosing from active, inactive

INSERT INTO assay_data (molecule, category_label) VALUES
  ('CCCCC(CC)C(=O)OCCOCCOCCOC(=O)C(CC)CCCC (configuration not stated)', 'inactive');

Answer briefly: the call reported for C[C@]12C=CC(=O)C=C1CC[C@H]1[C@@H]3C[C@@H](O)[C@](O)(C(=O)CO)[C@@]3(C)C[C@H](O)[C@@]12F in this assay.
inactive

Lab log entry: Cc1ncc([C@@H](CCCCCCc2ccc3c(n2)NCCC3)CC(=O)O)cn1 — outcome as called in the assay?
inactive

###

# target: human CYP2C9, CYP2C9 (gene 1559) (UniProt P11712)
# Sequence (P11712 whole entry, looked up): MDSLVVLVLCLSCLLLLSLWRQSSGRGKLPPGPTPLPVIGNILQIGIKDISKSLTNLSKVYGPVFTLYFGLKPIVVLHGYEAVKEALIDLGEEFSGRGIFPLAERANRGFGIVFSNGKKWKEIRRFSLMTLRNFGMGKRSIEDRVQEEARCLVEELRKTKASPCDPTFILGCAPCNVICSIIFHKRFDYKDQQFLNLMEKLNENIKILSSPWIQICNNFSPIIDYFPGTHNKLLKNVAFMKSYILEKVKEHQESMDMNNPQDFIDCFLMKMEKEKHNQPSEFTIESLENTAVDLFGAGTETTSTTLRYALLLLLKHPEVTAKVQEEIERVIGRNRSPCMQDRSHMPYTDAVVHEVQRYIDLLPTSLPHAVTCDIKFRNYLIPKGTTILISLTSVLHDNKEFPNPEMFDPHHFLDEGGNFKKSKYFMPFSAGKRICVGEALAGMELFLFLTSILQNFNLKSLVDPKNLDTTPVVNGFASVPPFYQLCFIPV
# assay-explanation: NVS_ADME_hCYP2C9: NovaScreen (NVS) CYP450-related Enzyme Activity (ADME) Assay for human CYP2C9 (AID 2283108)
Records with an inconclusive call do not appear. The source made the active and inactive calls. How the source made its calls: active means hit-call score of the fitted dose curve at least 0.9, where 1 is the maximum; inconclusive means response in the unintended direction; inactive means score below 0.9.
Parameter call: string, one of active, inactive

Reference set, count: 3
INSERT INTO assay_data (mol, category_label) VALUES
  ('CCCCCCCCCC', 'active'),
  ('CC(C)C(=O)Nc1ccc([N+](=O)[O-])c(C(F)(F)F)c1', 'inactive'),
  ('OC(Cn1cncn1)(Cn1cncn1)c1ccc(F)cc1F', 'inactive');

Outcome? CCCCCCCC/C=C\CCCCCCCC(=O)OC[C@@H](O)[C@H]1OC[C@H](O)[C@H]1O
active

Check the results log: what was the call for Cc1nccn1-c1ccc(Sc2cccc(C3(C(N)=O)CCOCC3)c2)cc1 ?
active

Fill in: this test's call for c1ccc(C(O[C@@H]2CCCN(CCc3ccc4c(c3)OCO4)C2)c2ccccc2)cc1 is ___
active

Field: outcome | Entry: CCN(CC)C(=S)SSC(=S)N(CC)CC
active

Which outcome was assigned to C=CCc1cc(S(=O)(=O)c2ccc(O)c(CC=C)c2)ccc1O in this test?
active

This collection of values is drawn from PubChem BioAssay (EPA / NIEHS).
